Provenance of the data: patent US10463660B2

Assay: Intranasal PK profiles of conjugated oxymorphone in rats (released oxymorphone in plasma by LC-MS/MS)
Assay type: in vivo
Details: 0.2 mg/kg oxymorphone equivalent, relative to the OM control
ENDPOINT NAME: %-Tmax (%)

COMPOUND	VALUE UNITS	VALUE OBSERVED
CN1CC[C@]23c4c5ccc(OC(=O)c6cc(-c7ccc(F)cc7F)ccc6O)c4O[C@H]2C(=O)CC[C@@]3(O)[C@H]1C5	%	200
COc1ccc(C(=O)Oc2ccc3c4c2O[C@H]2C(=O)CC[C@@]5(O)[C@@H](C3)N(C)CC[C@]425)cc1	%	100
COc1ccc(C(=O)OC2=CCC3(O)C4Cc5ccc(OC(=O)c6ccc(OC)cc6)c6c5C3(CCN4C)C2O6)cc1 (stereo not drawn)	%	167

###

Below, each of the compounds is paired with its reported Tmax value.
Assay: Intranasal PK profiles of conjugated oxymorphone in rats (released oxymorphone in plasma by LC-MS/MS)
Type: in vivo
Conditions: conjugate equivalent to 0.2 mg/kg freebase oxymorphone, released oxymorphone in plasma

COMPOUND	Tmax [min]
CN1CC[C@]23c4c5ccc(OC(=O)c6ccccc6O)c4O[C@H]2C(=O)CC[C@@]3(O)[C@H]1C5	4.8
CN1CC[C@]23c4c5ccc(OC(=O)c6cc(-c7ccc(F)cc7F)ccc6O)c4O[C@H]2C(=O)CC[C@@]3(O)[C@H]1C5	10.2
CN1CC[C@]23c4c5ccc(O)c4O[C@H]2C(OC(=O)c2cc(-c4ccc(F)cc4F)ccc2O)=CC[C@@]3(O)[C@H]1C5	4.8
CN1CC[C@]23c4c5ccc(O)c4O[C@H]2C(OC(=O)c2ccccc2)=CC[C@@]3(O)[C@H]1C5 [Conjugate 6-Bz-OM]	4.8
COc1ccc(C(=O)Oc2ccc3c4c2O[C@H]2C(=O)CC[C@@]5(O)[C@@H](C3)N(C)CC[C@]425)cc1	4.8
COc1ccc(C(=O)OC2=CCC3(O)C4Cc5ccc(OC(=O)c6ccc(OC)cc6)c6c5C3(CCN4C)C2O6)cc1 (stereo not drawn)	8.4

###

Experiment: Oral PK profiles of conjugated oxymorphone in rats (released oxymorphone in plasma by LC-MS/MS)
Type: in vivo, Sprague-Dawley rats
Conditions: conjugate equivalent to 2 mg/kg freebase oxymorphone, released oxymorphone in plasma
Classification field: Y = Cmax at or over 10 ng/mL; N = Cmax under 10 ng/mL.

COMPOUND	ANSWER LABEL
CN1CC[C@]23c4c5ccc(O)c4O[C@H]2C(OC(=O)c2ccccc2)=CC[C@@]3(O)[C@H]1C5 [Conjugate 6-Bz-OM]	N
COc1ccc(C(=O)Oc2ccc3c4c2O[C@H]2C(=O)CC[C@@]5(O)[C@@H](C3)N(C)CC[C@]425)cc1 [3-(4-MeO-Bz)-OM]	Y
COc1ccc(C(=O)OC2=CCC3(O)C4Cc5ccc(OC(=O)c6ccc(OC)cc6)c6c5C3(CCN4C)C2O6)cc1 (stereo not drawn) [3,6-(4-MeO-Bz)2-OM]	Y
CN1CC[C@]23c4c5ccc(O)c4O[C@H]2C(OC(=O)c2ccccc2O)=CC[C@@]3(O)[C@H]1C5 [6-(2-OH-Bz)-OM]	Y
CN1CC[C@]23c4c5ccc(O)c4O[C@H]2C(OC(=O)c2cccc(N)c2)=CC[C@@]3(O)[C@H]1C5 [6-(3-ABz)-OM]	N
CN1CC[C@]23c4c5ccc(O)c4O[C@H]2C(OC(=O)c2cc(-c4ccc(F)cc4F)ccc2O)=CC[C@@]3(O)[C@H]1C5 [6-Diflunisal-OM]	Y
CN1CC[C@]23c4c5ccc(OC(=O)/C=C/c6ccccc6)c4O[C@H]2C(OC(=O)/C=C/c2ccccc2)=CC[C@@]3(O)[C@H]1C5 [3,6-(Cinnamate)2-OM]	N
CN1CC[C@]23c4c5ccc(OC(=O)c6cc(-c7ccc(F)cc7F)ccc6O)c4O[C@H]2C(=O)CC[C@@]3(O)[C@H]1C5 [3-Diflunisal-OM]	Y
COc1cc(C(=O)Oc2ccc3c4c2O[C@H]2C(=O)CC[C@@]5(O)[C@@H](C3)N(C)CC[C@]425)ccc1O [3-Vanillate-OM]	N
COc1cc(C(=O)OC2=CC[C@@]3(O)[C@H]4Cc5ccc(O)c6c5[C@@]3(CCN4C)[C@H]2O6)ccc1O [6-Vanillate-OM]	N
CN1CC[C@]23c4c5ccc(O)c4O[C@H]2C(OC(=O)/C=C/c2ccccc2)=CC[C@@]3(O)[C@H]1C5 [6-Cinnamate-OM]	Y
CC(C(=O)OC1=CCC2(O)C3Cc4ccc(O)c5c4C2(CCN3C)C1O5)c1cccc(C(=O)c2ccccc2)c1 (stereo not drawn) [6-Ketoprofen-OM]	Y

###

Assay: Intranasal PK profiles of conjugated oxymorphone in rats (released oxymorphone in plasma by LC-MS/MS)
Assay type: in vivo
Details: conjugate equivalent to 0.2 mg/kg freebase oxymorphone, released oxymorphone in plasma
Threshold 40 ng·h/mL: AUC strictly smaller gives met, otherwise not met.

COMPOUND	ANSWER LABEL
CN1CC[C@]23c4c5ccc(O)c4O[C@H]2C(OC(=O)c2ccccc2)=CC[C@@]3(O)[C@H]1C5 [Conjugate 6-Bz-OM]	met
CN1CC[C@]23c4c5ccc(OC(=O)c6ccccc6O)c4O[C@H]2C(=O)CC[C@@]3(O)[C@H]1C5	not met
COc1ccc(C(=O)Oc2ccc3c4c2O[C@H]2C(=O)CC[C@@]5(O)[C@@H](C3)N(C)CC[C@]425)cc1	not met
CN1CC[C@]23c4c5ccc(O)c4O[C@H]2C(OC(=O)c2cc(-c4ccc(F)cc4F)ccc2O)=CC[C@@]3(O)[C@H]1C5	met
CN1CC[C@]23c4c5ccc(OC(=O)c6cc(-c7ccc(F)cc7F)ccc6O)c4O[C@H]2C(=O)CC[C@@]3(O)[C@H]1C5	not met
COc1ccc(C(=O)OC2=CCC3(O)C4Cc5ccc(OC(=O)c6ccc(OC)cc6)c6c5C3(CCN4C)C2O6)cc1 (stereo not drawn)	met

###

Assay: Oral PK profiles of conjugated oxymorphone in rats (released oxymorphone in plasma by LC-MS/MS)
Assay type: in vivo, Sprague-Dawley rats
Details: 2 mg/kg oxymorphone equivalent, relative to the OM control
Below, each of the molecules is paired with its reported %-Tmax value.
ENDPOINT NAME: %-Tmax (%)

MOLECULE	VALUE UNITS	VALUE OBSERVED
CN1CC[C@]23c4c5ccc(O)c4O[C@H]2C(OC(=O)/C=C/c2ccccc2)=CC[C@@]3(O)[C@H]1C5 [6-Cinnamate-OM]	%	225
CN1CC[C@]23c4c5ccc(OC(=O)/C=C/c6ccccc6)c4O[C@H]2C(OC(=O)/C=C/c2ccccc2)=CC[C@@]3(O)[C@H]1C5 [3,6-(Cinnamate)2-OM]	%	50
CC(C(=O)OC1=CCC2(O)C3Cc4ccc(O)c5c4C2(CCN3C)C1O5)c1cccc(C(=O)c2ccccc2)c1 (stereo not drawn)	%	260

###

Assay: Oral PK profiles of conjugated oxymorphone in rats (released oxymorphone in plasma by LC-MS/MS)
Assay type: in vivo, Sprague-Dawley rats
Conditions: conjugate equivalent to 2 mg/kg freebase oxymorphone, released oxymorphone in plasma

MOLECULE	VALUE UNITS	AUC
CC(C(=O)OC1=CCC2(O)C3Cc4ccc(O)c5c4C2(CCN3C)C1O5)c1cccc(C(=O)c2ccccc2)c1 (stereo not shown)	ng·h/mL	20.6
COc1ccc(C(=O)Oc2ccc3c4c2O[C@H]2C(=O)CC[C@@]5(O)[C@@H](C3)N(C)CC[C@]425)cc1	ng·h/mL	43.2
CN1CC[C@]23c4c5ccc(O)c4O[C@H]2C(OC(=O)c2ccccc2O)=CC[C@@]3(O)[C@H]1C5	ng·h/mL	50.6
CN1CC[C@]23c4c5ccc(O)c4O[C@H]2C(OC(=O)c2cc(-c4ccc(F)cc4F)ccc2O)=CC[C@@]3(O)[C@H]1C5	ng·h/mL	67.2
COc1ccc(C(=O)OC2=CC[C@@]3(O)[C@H]4Cc5ccc(O)c6c5[C@@]3(CCN4C)[C@H]2O6)cc1	ng·h/mL	12.2
CN1CC[C@]23c4c5ccc(O)c4O[C@H]2C(OC(=O)c2ccccc2)=CC[C@@]3(O)[C@H]1C5 [Conjugate 6-Bz-OM]	ng·h/mL	15.0
CC(=O)Oc1ccccc1C(=O)Oc1ccc2c3c1OC1C(=O)CCC4(O)C(C2)N(C)CCC314 (stereo not shown)	ng·h/mL	22.5
COc1cc(C(=O)OC2=CC[C@@]3(O)[C@H]4Cc5ccc(O)c6c5[C@@]3(CCN4C)[C@H]2O6)ccc1O [6-Vanillate-OM]	ng·h/mL	8.9
CN1CC[C@]23c4c5ccc(OC(=O)/C=C/c6ccccc6)c4O[C@H]2C(OC(=O)/C=C/c2ccccc2)=CC[C@@]3(O)[C@H]1C5 [3,6-(Cinnamate)2-OM]	ng·h/mL	14.5
CC(C(=O)Oc1ccc2c3c1O[C@H]1C(=O)CC[C@@]4(O)[C@@H](C2)N(C)CC[C@]314)c1cccc(Oc2ccccc2)c1 (stereo partly shown)	ng·h/mL	14.8
CN1CC[C@]23c4c5ccc(OC(=O)c6cc(-c7ccc(F)cc7F)ccc6O)c4O[C@H]2C(=O)CC[C@@]3(O)[C@H]1C5	ng·h/mL	17.6
COc1ccc(C(=O)OC2=CCC3(O)C4Cc5ccc(OC(=O)c6ccc(OC)cc6)c6c5C3(CCN4C)C2O6)cc1 (stereo not shown)	ng·h/mL	26.0
COc1cc(C(=O)Oc2ccc3c4c2O[C@H]2C(=O)CC[C@@]5(O)[C@@H](C3)N(C)CC[C@]425)ccc1O [3-Vanillate-OM]	ng·h/mL	14.7
